- protocol text: Protein binding in human serum at 1 to 1000 ug/mL by scintillation counting
- Type: ADME, cell-free
- experimental setup: read-out: PB (converted)
measured parameter: fraction unbound

| smiles entry | measured parameter | result |
| --- | --- | --- |
| CC[C@H](C)C[C@H](C)CCCCCCCCC(=O)N[C@H]1C[C@@H](O)[C@@H](NCCN)NC(=O)[C@@H]2[C@@H](O)CCN2C(=O)[C@H]([C@H](O)CCN)NC(=O)[C@H]([C@H](O)[C@@H](O)c2ccc(O)cc2)NC(=O)[C@@H]2C[C@@H](O)CN2C(=O)[C@H]([C@@H](C)O)NC1=O | fraction unbound | 0.04 |

Reference for the values: ChEMBL document CHEMBL1137656
